These entries and their values trace back to ChEMBL document CHEMBL3045802.

# Test system: MDA-MB-468
# ASSAY_INFO: Cytotoxicity against Homo sapiens (human) MDA-MB-468 cells assessed as growth inhibition at 10 uM after 48 hr by coulter counter analysis
# Type: functional
# CONDITION_LABEL: MDA-MB-468, 48 h, read-out: GI
Reported values of inhibition of growth at 10 µM for individual entries
Your answer should be a plain number; it is taken to be in %.

Reference set (2 entries):
- COMPOUND: "COc1ccc(C2C3=C(CCCC3)Nc3nc(-c4ccc(N(C)C)cc4)[nH]c(=O)c32)cc1OC (stereo not given)"
  inhibition of growth at 10 µM / %: 10.8
- COMPOUND: "COc1ccc(-c2nc3c(c(=O)[nH]2)C(c2ccc(OC)c(OC)c2)C2=C(CCCC2)N3)cc1OC (stereo not given)"
  inhibition of growth at 10 µM / %: 28.5

# evaluate next
IN: Would you kindly share the measured inhibition of growth at 10 µM for COc1ccc(C2C3=C(CCCC3)Nc3nn[nH]c(=O)c32)cc1OC (stereo not given) ?
OUT: 21.1
